Assay Method Text: gradient 5% acetonitrile 3 min, to 50% in 2 min, to 85% in 15 min, held 3 min, 100 µL/min
Reported Conditions: column: Zorbax Extend-C18 2.1 x 50 mm; eluents: water / acetonitrile, 0.1% formic acid
RP-LC retention time vs 800 s: at or above is label 1, below is label 0.

>>> answer_label("c1cnc(N2CCN(Cc3ccc4c(c3)OCO4)CC2)nc1")
"label 0"
>>> answer_label("CSc1ccc(CNC(=O)CCc2c(-c3ccc(Br)cc3)nc3ccccn23)cc1")
"label 0"
>>> answer_label("O=C(Nc1ccc2c(c1)OCCO2)C1CCCN(c2ncnc3c2nc2n3CCCCC2)C1 (centres undefined)")
"label 0"
>>> answer_label("Brc1ccc([C@H]2CN3CCSC3=N2)cc1")
"label 0"

Exercise: # check: RP-LC retention time of `Cc1cc(N2C=C(C(=O)N3CCOCC3)S(=O)(=O)c3ccc(F)cc32)ccc1Br` is greater than or equal to 800 s
Key: label 1
